# ASSAY SUMMARY: Quantitative High-Throughput drug screen in 47 multiple myeloma cell lines against the NCATS MIPE library collection: JJN3_DSMZ cell viability assay (AID 1918966; note: nearly all actives have a fitted effect of over 50% in size)
# TEST SETTINGS: JJN3 myeloma cells viability, CellTiter-Glo ATP, 48 h; series mostly up to 45.8 µM
Inconclusive results are not listed. Calls of active or inactive are those of the source. Calls come from the whole dose curve; as a rule, active = well fitted cell-killing curve with a large enough effect; inconclusive = small, poorly fitted or top-dose-only effect, or effect the other way; inactive = no such curve, though single readings can be large or run the other way.
Outcome codes: active, inactive

MOLECULE: CN(C)CCOc1ccc(-c2nc(-c3ccc4c(c3)CCC4=NO)c(-c3ccncc3)[nH]2)cc1
LABEL CLASS: active
//
MOLECULE: COc1cc2nc(-c3cc(F)ccc3O)nc(N[C@@H]3CNC[C@@H]3C(C)(C)O)c2cc1OC
LABEL CLASS: active
//
MOLECULE: CC[C@H](NC(=O)[C@H](C)NC)C(=O)N1C[C@@H](O)C[C@H]1Cc1c(-c2[nH]c3cc(F)ccc3c2C[C@H]2C[C@H](O)CN2C(=O)[C@H](CC)NC(=O)[C@H](C)NC)[nH]c2cc(F)ccc12
LABEL CLASS: inactive
//
MOLECULE: CC[C@@H]([C@H](C)O)n1ncn(-c2ccc(N3CCN(c4ccc(OCC5CO[C@@](Cn6cncn6)(c6ccc(F)cc6F)C5)cc4)CC3)cc2)c1=O (some centres undefined)
LABEL CLASS: active
